- CONDITION PARAMETERS: buffer; pH 7.4; 6.0 h; 150.0 µM
READOUT: solubility kinetic

[[record]]
molecule = "c1c[nH]c(C2CCN(c3ncc(-c4ccc5c(c4)OCCCO5)s3)CC2)n1"
result = "4.09 µg/mL"

[[record]]
molecule = "Cc1ccccc1C(=O)N1CCc2cc(-c3nc(NC(=O)Cc4ccc5c(c4)OCO5)sc3C)ccc21"
result = "< 1 µg/mL"


Please turn your attention to the following entry.
Give the reported value of solubility kinetic for this record: Cc1ccc(S(=O)(=O)Nc2ccccc2C(=O)Nc2ccc(-c3ccccc3)nn2)cc1
< 1 µg/mL

* * *

- CONDITION PARAMETERS: buffer; pH 7.4; 6.0 h; 150.0 µM
# reported solubility kinetic; entries follow

The following compounds have reported results that may help.
[[record]]
compound = "CCOc1ccc(CCNC(=O)c2ccc3ccccc3n2)cc1OCC"
readout = "solubility kinetic"
result = "8.84 µg/mL"

[[record]]
compound = "COc1cccc(-c2nc3cc(NC(=O)c4ccc(C)c([N+](=O)[O-])c4)ccc3o2)c1"
readout = "solubility kinetic"
result = "< 1 µg/mL"

[[record]]
compound = "COc1ccc(-c2ccc3nc(-c4ccc(SC)cc4)oc3c2)c(OC)c1OC"
readout = "solubility kinetic"
result = "< 1 µg/mL"

[[record]]
compound = "CCOc1ccccc1C(=O)Nc1cccnc1C(=O)Nc1cccc(S(=O)(=O)C(F)(F)F)c1"
readout = "solubility kinetic"
result = "< 1 µg/mL"

[[record]]
compound = "NC(=O)C1CCN(c2nccc(-c3ccc4c(c3)OCCO4)n2)CC1"
readout = "solubility kinetic"
result = "> 50 µg/mL"


Next up:
In one line, give reported solubility kinetic of the entry O=c1c2ccccc2nc(/C=C/c2cccnc2)n1Cc1ccccc1 .
1.8 µg/mL

* * *

In this section, each of the compounds is paired with its reported solubility kinetic.
- CONDITION PARAMETERS: buffer; pH 7.4; 6.0 h; 150.0 µM

Example results:
[[record]]
compound = "N#Cc1ccc(-c2csc(N3CCC(C(N)=O)CC3)n2)cc1"
result = "0.00434 mg/mL"

[[record]]
compound = "CCOC(=O)N1CCN(Cc2nc3c(c(=O)n(C)c(=O)n3C)n2Cc2cccc(C)c2)CC1"
result = "> 0.067 mg/mL"

[[record]]
compound = "Cc1nnc2c3ccccc3nc(N3CCN(c4ccccc4)CC3)n12"
result = "< 0.001 mg/mL"

[[record]]
compound = "C[C@H]1CN(C(=O)c2nn(C)c3ccccc23)C[C@@H]1c1nc(-c2ccncc2)no1"
result = "0.0349 mg/mL"

[[record]]
compound = "Cc1cc(C)nc(NC(=S)N2CCN(c3cccc(OC(F)F)c3)CC2)c1"
result = "0.0116 mg/mL"


Return the recorded solubility kinetic value; entry: O=C(Cc1ccc(Cl)c(Cl)c1)Nc1ccc(S(=O)(=O)Nc2ccon2)cc1
> 0.1 mg/mL

Return solubility kinetic (reported value) for this compound: CN(C)c1cccc(-c2cnc(N3CCC(C(N)=O)CC3)nc2)c1
0.0349 mg/mL

Give the measured solubility kinetic for CC1=C(C(=O)Nc2ccccc2)C(c2ccc[nH]2)n2ncnc2N1 (configuration not stated)
0.00906 mg/mL

# return recorded solubility kinetic for entry COc1cc(OC)c2c(=O)[nH]c(-c3cc(C)c(OCCO)c(C)c3)nc2c1
> 0.055 mg/mL

Item CCC1=Nc2cc(C(=O)NCCCOC)ccc2Sc2ccc(Br)cc21 : provide solubility kinetic
0.00663 mg/mL

* * *

- CONDITION PARAMETERS: buffer; pH 7.4; 6.0 h; 150.0 µM
READOUT: solubility kinetic

Look over these answered cases.
[[record]]
compound = "Cc1cc(/C=C2/C(=O)Nc3ccccc32)cc(C)c1O"
readout = "solubility kinetic"
result = "< 0.001 mg/mL"

[[record]]
compound = "Cc1ccc(-c2cc(C(=O)Nc3ccccn3)c3ccccc3n2)cc1"
readout = "solubility kinetic"
result = "< 0.001 mg/mL"

[[record]]
compound = "Clc1cccc(COc2cncc(N3CCNCC3)n2)c1"
readout = "solubility kinetic"
result = "> 0.045 mg/mL"

[[record]]
compound = "CCCCCn1cc2c(c1-c1ccc(Br)cc1)c(=O)n(C)c(=O)n2C"
readout = "solubility kinetic"
result = "< 0.001 mg/mL"

[[record]]
compound = "O=C(NC[C@H]1Cn2c(-c3ccc(Cl)cc3)cnc2CO1)C1CCCC1"
readout = "solubility kinetic"
result = "> 0.036 mg/mL"


API: the following record is the query input.
Report solubility kinetic for CN1CCc2cc3c(cc2C1)OCO3
> 0.028 mg/mL

* * *

Each item that follows carries a reported solubility kinetic.
- CONDITION PARAMETERS: buffer; pH 7.4; 6.0 h; 150.0 µM

Solved entries:
[[record]]
molecule = "O=C(CSc1nc(-c2ccc(F)cc2)[nH]c1-c1ccc(F)cc1)Nc1ccc2c(c1)OCCO2"
readout = "solubility kinetic"
result = "< 1 µg/mL"

[[record]]
molecule = "NC(=O)C1CCN(c2nc(-c3cccs3)cs2)CC1"
readout = "solubility kinetic"
result = "> 43 µg/mL"

[[record]]
molecule = "NC(=O)C1CCN(c2nc(-c3ccccc3F)cs2)CC1"
readout = "solubility kinetic"
result = "4.65 µg/mL"

[[record]]
molecule = "O=C(NCc1ccccc1)C1CCN(c2nc(-c3ccc(Br)cc3)cs2)CC1"
readout = "solubility kinetic"
result = "2.48 µg/mL"

[[record]]
molecule = "Cc1cc(C(=O)Nc2nnc(C3CCCCC3)s2)cs1"
readout = "solubility kinetic"
result = "< 1 µg/mL"


Okay, next one:
Please give the documented solubility kinetic of Cc1ccccc1S(=O)(=O)N1CCCC(CCC(=O)NCCN(C)C2CCCCC2)C1 (stereo unspecified)
11.7 µg/mL

* * *

Entries and their solubility kinetic
- CONDITION PARAMETERS: buffer; pH 7.4; 6.0 h; 150.0 µM
// units = mg/mL; emit number, no label

Illustrative cases are given below, each with its answer.
[[record]]
compound = "O=C(Nc1nc(-c2ccccc2)cs1)c1ccncc1NS(=O)(=O)c1cccc2cccnc12"
readout = "solubility kinetic"
measurement_units = "mg/mL"
measured_number = 0.0398

[[record]]
compound = "Fc1cccc(CN2CCNc3cc(Nc4ccccc4)ncc3C2)c1"
readout = "solubility kinetic"
measurement_units = "mg/mL"
measured_number = 0.0273

[[record]]
compound = "c1coc(-c2nc3ccncc3[nH]2)c1"
readout = "solubility kinetic"
measurement_units = "mg/mL"
measured_number = 0.0139


Specify solubility kinetic for CC(=O)Nc1ccc(N[S+](=O)([O-])c2cccc(NC(=O)c3[nH]c(C)c(C(C)=O)c3C)c2)cc1 and stop.
0.0183

* * *

Recorded solubility kinetic values for a group of molecules are listed next.
- CONDITION PARAMETERS: buffer; pH 7.4; 6.0 h; 150.0 µM
Your answer is read as µg/mL, so omit the unit and give the number.

[[record]]
molecule = "CCCNC(=O)Nc1ccc(Oc2ncnc3cc(OC)c(OC)cc23)cc1Cl"
measurement_units = "µg/mL"
measured_number = 1.55

[[record]]
molecule = "COc1ccc(Nc2cc3c(nc2OC)nc(CCc2ccccc2)n3C)cn1"
measurement_units = "µg/mL"
measured_number = 22.4

[[record]]
molecule = "CCc1ccc2ncc(C(=O)c3ccc(C)c(C)c3)c(N3CCC(C(N)=O)CC3)c2c1"
measurement_units = "µg/mL"
measured_number = 2.27

[[record]]
molecule = "Cc1cccc2c1NC(=O)/C2=C/c1cc(Cl)c(O)c(Cl)c1"
measurement_units = "µg/mL"
measured_number = 10.1

[[record]]
molecule = "CC(=O)c1ccc(-c2csc(N3CCC(C(N)=O)CC3)n2)cc1"
measurement_units = "µg/mL"
measured_number = 6.11


State its solubility kinetic for this molecule: COc1ccc(-c2nc(N3CCOCC3)c3sc(CN(C)c4ncc(C(=O)NO)cn4)cc3n2)cn1
5.56

Annotate the molecule CC1CCN(C(=O)c2ccc(-c3ccc(N4CCSCC4)nc3)cc2)CC1 with its measured solubility kinetic.
2.44

Please look at this molecule and report its solubility kinetic: Cc1ccc(-n2ncc3c(NCCCn4ccnc4)ncnc32)cc1Cl
4.07

Read the entry Cc1noc(C)c1C(=O)N1CCC2(CCCN(C(c3ccccc3)c3ccccc3)C2)CC1 and write its reported solubility kinetic.
1.15

Given COc1ccc(NC2CCCN(C(=O)CCc3ccccc3F)C2)cc1 (stereo unspecified) , respond with its solubility kinetic.
41.3

Determine its reported solubility kinetic: Cc1cc(C)nc(NC(=S)N2CCN(c3cc(C(F)(F)F)nc4ccc(C(F)(F)F)cc34)CC2)c1
12

* * *

- CONDITION PARAMETERS: buffer; pH 7.4; 6.0 h; 150.0 µM
READOUT: solubility kinetic

[[record]]
compound = "COc1ccccc1C(=O)Nc1ccccc1C(=O)Nc1cccc(C(F)(F)F)c1"
readout = "solubility kinetic"
result = "< 1 µg/mL"

[[record]]
compound = "Cc1ccc(NC(=O)C(Cc2ccccc2)NS(=O)(=O)c2cccs2)cc1Cl (stereo unspecified)"
readout = "solubility kinetic"
result = "< 1 µg/mL"


Find the measured solubility kinetic of O=C(Nc1nc2cc(C(F)(F)F)cc(NC3CC3)n2n1)c1cccnc1 and report it.
< 1 µg/mL

# return recorded solubility kinetic for input COC(=O)Nc1nc2ccc(SC(C)C)cc2[nH]1
< 1 µg/mL

Give reported solubility kinetic value for COc1cccc(-c2csc(N3CCC(C(N)=O)CC3)n2)c1
> 47 µg/mL

Please report solubility kinetic for the following compound: NC(=O)N1CCN(c2nc(-c3ccc(Br)cc3)cs2)CC1
1.84 µg/mL

State its solubility kinetic: O=S(=O)(Nc1cccc2ccncc12)c1ccc(NCc2cccc(Cl)c2O)cc1
4.67 µg/mL

Output measured solubility kinetic for this item: C[S+](=O)([O-])c1ccc(-c2nc(C(=O)N3CCOCC3)n3ccncc23)cc1
> 57 µg/mL

For the compound Cc1cccc(N2CCN(C(=O)Cn3ncc4c3-c3ccccc3OC4)CC2)c1C , give its measured solubility kinetic value.
3.85 µg/mL

Provide measured solubility kinetic value, entry: COc1cccc(CNc2ccc(S(=O)(=O)Nc3nc4ccccc4o3)cc2)c1O
> 63 µg/mL

Note down solubility kinetic recorded for C#Cc1ccc(NC(=O)c2cnn3c(C)cc(C)nc23)cc1
< 1 µg/mL
